Where these numbers come from: ChEMBL document CHEMBL3120088

- TEST METHOD NOTES: Toxicity in mouse after 14 days
- Assay type: organism-based
- CONDITION CONTEXT: in vivo
ASSAY READOUT: MTD at 336 h (mg/kg)
Please reply with the bare figure in mg/kg and do not write the unit itself.

get_value(item= COc1ncc(-c2ccc3nc(N)n(-c4ccccc4C(F)(F)F)c(=O)c3c2)cc1S(=O)(=O)Nc1ccc(F)cc1F (atropisomer aS) , readout=MTD at 336 h) returns 50

====

Field: pIC50. Provide a value for each of the compounds that follow.
- TEST METHOD NOTES: Inhibition of PI3Kdelta (1 to 1044)/6xHis-tagged p85 (1 to 724) (unknown origin) using diC8-PIP2 as substrate preincubated for 30 mins followed by substrate addition measured after 45 to 60 mins
- Parameters: species or system Homo sapiens
// keep it numeric: no unit symbol after the value

// COc1ncc(-c2ccc3nc(N)c(-c4ccccc4)cc3c2)cc1NS(=O)(=O)c1ccc(F)cc1F : pIC50 value = 6.9

// sample COc1ncc(-c2ccc3nc(N)n(-c4ccccc4C)c(=O)c3c2)cc1S(=O)(=O)Nc1ccc(F)cc1F , its pIC50 was 6.7

pIC50 measured on COc1ncc(-c2ccc3nc(N)n(-c4ccccc4)c(=O)c3c2)cc1NS(=O)(=O)C(C)C = 6.7

So, COc1ncc(-c2ccc3nc(N)n(-c4ccccc4)c(=O)c3c2)cc1NS(=O)(=O)c1ccc(C#N)cc1 ? Its pIC50 was 7.6

Record summary for COc1ncc(-c2ccc3nc(N)n(-c4ccccc4C(F)(F)F)c(=O)c3c2)cc1S(=O)(=O)Nc1ccc(F)cc1F (atropisomer aR) : reported pIC50 = 5

Field pIC50 (entry COc1ncc(-c2ccc3nc(N)n(-c4ccccc4)c(=O)c3c2)cc1N(C)S(=O)(=O)c1ccc(F)cc1F ) reads 4.8

Kindly note the recorded pIC50 for COc1ncc(-c2cnc3nc(N)c(-c4ccccc4)cc3c2)cc1NS(=O)(=O)c1ccc(F)cc1F , which is 5.7

pIC50 in this record for COc1ncc(-c2cc3cc(-c4ccccc4)c(N)nc3cn2)cc1NS(=O)(=O)c1ccc(F)cc1F : 6.2

Value of pIC50 reported for the compound Nc1ncc(-c2ccc3nc(N)n(-c4ccccc4)c(=O)c3c2)cc1NS(=O)(=O)c1ccc(F)cc1F is 6.4

The reported pIC50 of the compound COc1ncc(-c2ccc3nc(N)c(-c4ccc(N5CCOCC5)cc4)cc3c2)cc1NS(=O)(=O)c1ccc(F)cc1F was 6.2

Item: COc1ncc(-c2ccc3nc(N)n(-c4ccccc4)c(=O)c3c2)cc1NS(=O)(=O)c1ccc(C)cc1 | pIC50: 8

For record COc1ncc(-c2ccc3nc(N)n(-c4ccccc4)c(=O)c3c2)cc1NS(=O)(=O)c1cccc(C)c1 the listed pIC50 is 7.3
